Listed next: entries and their corresponding Kd.
# measured_target: T1, Rb^P M761L (human, UniProt P06400 380-788, M761L)
# T1 construct: also called variant 74
# T1 sequence (looked up): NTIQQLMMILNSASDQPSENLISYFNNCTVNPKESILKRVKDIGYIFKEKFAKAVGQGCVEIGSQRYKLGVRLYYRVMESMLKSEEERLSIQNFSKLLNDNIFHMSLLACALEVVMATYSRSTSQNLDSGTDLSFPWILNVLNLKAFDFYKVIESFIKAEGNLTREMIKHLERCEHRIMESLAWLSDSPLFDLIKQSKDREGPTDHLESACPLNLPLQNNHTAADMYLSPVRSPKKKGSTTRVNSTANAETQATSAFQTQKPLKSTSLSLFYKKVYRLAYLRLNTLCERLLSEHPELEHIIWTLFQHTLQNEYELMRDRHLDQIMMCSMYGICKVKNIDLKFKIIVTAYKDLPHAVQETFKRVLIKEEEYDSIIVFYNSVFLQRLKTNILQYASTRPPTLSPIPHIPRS
# assay: fluorescence polarisation; 37 °C, after the 25 °C reading ramped over 7 min to 37 °C and 2 min incubation; unlabeled Rb^P against 1.5 nM TMR-E2F1^TD or 7.5 nM TMR-E7^LxCxE; 25 mM Tris pH 8.0, 200 mM NaCl, 1 mM DTT, 0.1% Tween-20; apparent Kd
# measurement_setup: both partners purified
No end group written: not given here. TMR = tetramethyl rhodamine dye
Report the value in nM with no unit label.

>  <binder>
DLYCYEQLN (also: TMR label, position not given here, source: synthetic peptide, bought: GenScript) [TMR-E7^LxCxE, LxCxE peptide of the E7 oncoprotein from HPV]

>  <unit_annotation>
nM

>  <measured_number>
5

$$$$

Here is the next item to consider.
## Task Record request: Kd value, item {TMR}-GEGIRDLFDCDFGDLTPLD (also called E2F^TD; source: synthetic peptide, bought: GenScript) [TMR-E2F1^TD, peptide of the E2F1 transactivation domain]
## Result 68

Data origin, for the record: paper PMC11931385
